Tested on: PD1-ss+10aa/Gaussia Luciferase
Experiment: Dox-Induced PD1-ss-Gluc Assay
Format: cell-based
Settings: 24 hr doxycycline induction, 293FRT/TO cells, Gaussia luciferase signal; read-out: 24 hr Dox Inducible PD1ssGluc 293FRT/TO: Mean IC50
measured.attribute: IC50

Cc1cc(C(=O)Nc2nc(C(C)(C)OC(C)C)cs2)n(Cc2ccncc2)n1 [Compound A103] : > 25 µM
CC(C)OC(C)(C)c1csc(NC(=O)c2ccccc2Cc2ccncc2)n1 [Compound A280] : 12.7 µM

Now, please, on to the next compound.
Q: Consider the compound O=C(Nc1nc(C2=CCN(Cc3ccccc3)CC2)cs1)c1cccn1Cc1ccncc1 [Compound A259] and give its measured IC50.
Ans: 0.516 µM

====

System: PD1-ss+10aa/Gaussia Luciferase
Assay: Dox-Induced PD1-ss-Gluc Assay
Assay type: cell-based
Details: 24 hr doxycycline induction, 293FRT/TO cells, Gaussia luciferase signal; read-out: 24 hr Dox Inducible PD1ssGluc 293FRT/TO: Mean IC50
measured.attribute: pIC50
Give only the number. pIC50 is defined as minus log10 of concentration in molar units.

CC(C)Cc1cnc(NC(=O)c2cccn2Cc2ccncc2)s1 : 5.85
CC(C)(C)c1cnc(NC(=O)c2cccn2Cc2ccncc2)s1 : 5.86

Now, please, on to the next compound.
Q: Consider the compound `CC(C)OC(C)(C)c1csc(NC(=O)c2cccn2Cc2ccncc2NCc2ccccc2)n1` and give its measured pIC50.
Ans: 5.32

====

Tested on: PD1-ss+10aa/Gaussia Luciferase
Assay: Dox-Induced PD1-ss-Gluc Assay
Type: cell-based
Settings: 24 hr doxycycline induction, 293FRT/TO cells, Gaussia luciferase signal; read-out: 24 hr Dox Inducible PD1ssGluc 293FRT/TO: Mean IC50
Measured pIC50 by item
Give only the number. pIC50 is defined as minus log10 of concentration in molar units.

Below, each entry is followed by its recorded pIC50 result.
CC(C)(C)c1csc(NC(=O)c2cccn2Cc2ccncc2)n1 : 6.02
CC(C)OC(C)(C)c1csc(NC(=O)c2cccn2Cc2ccncc2F)n1 : 6.50

Now, please, on to the next compound.
Q: Consider the compound `Cc1sc(NC(=O)c2cccn2Cc2ccncc2)nc1C(C)(C)OC(C)C` and give its measured pIC50.
Ans: 6.15

====

Test system: IL-2-FL/Gaussia Luciferase
Test: Dox Induced IL2-FL-Gluc Assay
Format: cell-based
Conditions: 24 hr doxycycline induction, 293FRT/TO cells, Gaussia luciferase signal; read-out: 24 hr Dox Inducible IL2FLGIuc 293FRT/TO: Mean IC50
Measured IC50 by item

Below, each entry is followed by its recorded IC50 result.
CC(C)OC(C)(C)c1csc(NC(=O)[C@@H]2CCCN2Cc2ccncc2)n1 [Compound A130] : > 25 µM
CC(C)OC(C)(C)c1csc(NC(=O)c2cccn2CC2CCN(C)CC2)n1 [Compound A129] : > 25 µM

Now, please, on to the next molecule.
Q: What reported IC50 corresponds to O=C(Nc1nc(N2CCCCC2)cs1)c1cccn1Cc1ccncc1 [Compound A264] on IL-2-FL/Gaussia Luciferase?
Ans: > 25 µM

====

System: HER3-ss+4aa/Gaussia Luciferase
Test: Dox-Induced Her3-ss-Gluc Assay
Type: cell-based
Details: 24 hr doxycycline induction, 293FRT/TO cells, Gaussia luciferase signal; read-out: 24 hr Dox Inducible Her3(ss + 4)Gluc 293FRT/TO: Mean IC50
Measured IC50 by item

CC(C)OC(C)(C)c1csc(NC(=O)c2cc(CO)cn2Cc2ccncc2)n1 [Compound A113] : > 25 µM
CCS(=O)(=O)N1CCN(Cc2csc(NC(=O)c3cccn3Cc3ccncc3)n2)CC1 [Compound A96] : > 25 µM
Cc1ccn(Cc2ccncc2)c1C(=O)Nc1nc(C(C)(C)OC(C)C)cs1 [Compound A88] : > 25 µM
CC(=O)N(C)c1ccc(/C=C/c2csc(NC(=O)c3cccn3Cc3ccncc3)n2)cc1 [Compound A245] : > 25 µM
O=C(Nc1nc(Cc2ccccc2)cs1)c1cccn1CCCc1cccnc1 [Compound A187] : > 21.9 µM
CC(C)OC1(c2csc(NC(=O)c3cccn3Cc3ccncc3)n2)CC1 [Compound A123] : > 25 µM
CC(C)c1csc(CNC(=O)c2cccn2Cc2ccncc2)n1 [Compound A117] : > 25 µM
O=C(Nc1nc(CCO)cs1)c1cccn1Cc1ccncc1 [Compound A120] : > 25 µM
CC(=O)N(C)c1ccc(Cn2cccc2C(=O)Nc2nc(C(C)(C)OC(C)C)cs2)cc1 [Compound A99] : > 25 µM
Cc1cc(Cn2cccc2C(=O)Nc2nc(C(C)(C)OC(C)C)cs2)ccn1 [Compound A83] : > 25 µM

Now, please, on to the next compound.
Q: Consider the compound COc1ccc(/C=C/c2csc(NC(=O)c3cccn3Cc3ccncc3)n2)cc1F [Compound A240] and give its measured IC50.
Ans: 0.271 µM

Just for reference, patent US20220153732A1 is where these values come from.
